B1: Max-interacting protein 1, residues 70 to 120; numbered along this chain, P50539 (parent)
chain: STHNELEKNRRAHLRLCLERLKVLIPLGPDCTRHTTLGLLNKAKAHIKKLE

- Variants of: B1
- assay: abundance fitness (aPCA) (normalised: wild type 0, dead -1); higher = more abundant; growth selection in yeast, the domain comes from the species named
- measurement setup: Homo sapiens

{"record sequence": "STHNELEKNRRAHLRLCLERLKVLIKLGPDCTRHTTLGLLNKAKAHIKKLE", "abundance fitness": 0.441}
{"record sequence": "STHNNLEKNRRAHLRLCLERLKVLIPLGPDCTRHTTLGLLNKAKAHIKKLE", "abundance fitness": 0.282}
{"record sequence": "STHNETEKNRRAHLRLCLERLKVLIPLGPDCTRHTTLGLLNKAKAHIKKLE", "abundance fitness": -0.025}
{"record sequence": "STHNELEKNRRAHLRLCLERLKVLIPLGPDCTRHTTLGLLNKAKAHILKLE", "abundance fitness": -0.802}
{"record sequence": "STHNEKEKNRRAHLRLCLERLKVLIPLGPDCTRHTTLGLLNKAKAHIKKLE", "abundance fitness": -0.086}
{"record sequence": "STHNELEKNRRAHLRLCLERLLVLIPLGPDCTRHTTLGLLNKAKAHIKKLE", "abundance fitness": -0.639}
{"record sequence": "STHNELEKNRRAHLRLCLERLKVLIPLGPDCTLHTTLGLLNKAKAHIKKLE", "abundance fitness": -0.438}
{"record sequence": "STHNELEKNRRAHLRLNLERLKVLIPLGPDCTRHTTLGLLNKAKAHIKKLE", "abundance fitness": -0.536}
{"record sequence": "STHNELEKNRRAHLRLCLERLKVLIPLGPDCTRHTTLGLLNKAKAHIKDLE", "abundance fitness": -1.07}
{"record sequence": "STHNELEKNRRAHLLLCLERLKVLIPLGPDCTRHTTLGLLNKAKAHIKKLE", "abundance fitness": -0.432}
{"record sequence": "SFHNELEKNRRAHLRLCLERLKVLIPLGPDCTRHTTLGLLNKAKAHIKKLE", "abundance fitness": -0.586}
{"record sequence": "STHNELEKNRRAHLRLCLERGKVLIPLGPDCTRHTTLGLLNKAKAHIKKLE", "abundance fitness": -0.957}
{"record sequence": "STHNELEKNRRAHLRLCLERLKVLIPLGPDCTRHTTLGILNKAKAHIKKLE", "abundance fitness": -0.07}
{"record sequence": "STHNELEKNRRAHLPLCLERLKVLIPLGPDCTRHTTLGLLNKAKAHIKKLE", "abundance fitness": -0.21}
{"record sequence": "STHTELEKNRRAHLRLCLERLKVLIPLGPDCTRHTTLGLLNKAKAHIKKLE", "abundance fitness": 0.135}
{"record sequence": "STHNELEKNRRAHLRLCLEVLKVLIPLGPDCTRHTTLGLLNKAKAHIKKLE", "abundance fitness": -0.797}
{"record sequence": "STHNEMEKNRRAHLRLCLERLKVLIPLGPDCTRHTTLGLLNKAKAHIKKLE", "abundance fitness": -0.247}
{"record sequence": "STHNELEKNRRAHLRLCLERLKVLIPLGPDCTRGTTLGLLNKAKAHIKKLE", "abundance fitness": 0.114}
{"record sequence": "STHNELEKNRRAHLRLCLERLKVHIPLGPDCTRHTTLGLLNKAKAHIKKLE", "abundance fitness": -0.139}
{"record sequence": "STHNELEKNRRAGLRLCLERLKVLIPLGPDCTRHTTLGLLNKAKAHIKKLE", "abundance fitness": 0.124}
{"record sequence": "STHNELEKNRRAHLRLCLERLKVLIPLGPDCTRSTTLGLLNKAKAHIKKLE", "abundance fitness": 0.047}
{"record sequence": "STHNELEKNCRAHLRLCLERLKVLIPLGPDCTRHTTLGLLNKAKAHIKKLE", "abundance fitness": -0.071}
{"record sequence": "STHNELEKNRRAHLRLCLERLKVLIPLMPDCTRHTTLGLLNKAKAHIKKLE", "abundance fitness": 0.074}
{"record sequence": "STHNELEKNRRAHLRLCLERLKVLIPLGPDWTRHTTLGLLNKAKAHIKKLE", "abundance fitness": 0.19}
{"record sequence": "STHNELEKNRRAHLRLCLENLKVLIPLGPDCTRHTTLGLLNKAKAHIKKLE", "abundance fitness": -0.335}
{"record sequence": "STHNELEKNRRAHLRLCLERLKVLIPLGPDCTRHTTLGLLNKAKAHIKMLE", "abundance fitness": -0.692}
{"record sequence": "STHNELEKNRRAHLRLCLERLKVLIPLGPDCTRHTTWGLLNKAKAHIKKLE", "abundance fitness": 0.125}
{"record sequence": "SMHNELEKNRRAHLRLCLERLKVLIPLGPDCTRHTTLGLLNKAKAHIKKLE", "abundance fitness": -0.63}
